Organism: Homo sapiens
Test: Inhibition of human ChoK activity assessed as inhibition of incorporation of [14C] from methyl[14C]choline into phosphocholine at 10 uM after 20 mins by scintillation counting
Calls of active or inactive are those of the source. No cut-off for these calls is given here.
measure-name: inhibition

Before answering, review these 6 worked examples.
- compound-smiles: "CN(C)c1cc[n+](Cc2ccc(CCc3ccc(COc4cccc(N)c4)cc3)cc2)cc1.[Br-]"
  measure-name: "inhibition"
  value-observed: "inactive"
- compound-smiles: "CN(C)c1cc[n+](Cc2ccc(CNc3cccc(O)c3)cc2)cc1.[Br-]"
  measure-name: "inhibition"
  value-observed: "27.5%"
- compound-smiles: "CN(C)c1cc[n+](Cc2ccc(-c3ccc(COc4cccc(N)c4)cc3)cc2)cc1.[Br-]"
  measure-name: "inhibition"
  value-observed: "54.4%"
- compound-smiles: "Nc1cccc(OCc2ccc(-c3ccc(C[n+]4ccc(N5CCCC5)cc4)cc3)cc2)c1.[Br-]"
  measure-name: "inhibition"
  value-observed: "inactive"
- compound-smiles: "Oc1cccc(NCc2ccc(C[n+]3ccc(N4CCCC4)cc3)cc2)c1.[Br-]"
  measure-name: "inhibition"
  value-observed: "inactive"
- compound-smiles: "Nc1cccc(OCc2ccc(CCc3ccc(C[n+]4ccc(N5CCCC5)cc4)cc3)cc2)c1.[Br-]"
  measure-name: "inhibition"
  value-observed: "inactive"

Fill in reported inhibition for this entry: "CN(C)c1cc[n+](Cc2ccc(-c3ccc(Cn4cnc(N)c5ncnc4-5)cc3)cc2)cc1.[Br-]"
62.3%

Report inhibition for "Nc1cccc(OCc2ccc(C[n+]3ccc(N4CCCC4)cc3)cc2)c1"
3.8%

Complete the entry with inhibition for "CN(C)c1cc[n+](Cc2ccc(CCCCc3ccc(CNc4cccc(O)c4)cc3)cc2)cc1.[Br-]"
3.8%

State, in one line, measured inhibition of "CN(C)c1cc[n+](Cc2ccc(COc3cccc(N)c3)cc2)cc1.[Br-]"
14.8%

Assign inhibition to the following record: "Oc1cccc(NCc2ccc(-c3ccc(C[n+]4ccc(N5CCCC5)cc4)cc3)cc2)c1.[Br-]"
inactive

Return inhibition for the following compound: "Nc1cccc(OCc2ccc(CCCCc3ccc(C[n+]4ccc(N5CCCC5)cc4)cc3)cc2)c1.[Br-]"
inactive

Fill in reported inhibition for this entry: "CN(C)c1cc[n+](Cc2ccc(CCCCc3ccc(COc4cccc(N)c4)cc3)cc2)cc1.[Br-]"
inactive

Tell me its inhibition given "CN(C)c1cc[n+](Cc2ccc(CCCCc3ccc(Cn4cnc5c(N)ncnc54)cc3)cc2)cc1.[Br-]" as the entry.
66.7%

Please indicate inhibition recorded for "Oc1cccc(NCc2ccc(CCCCc3ccc(C[n+]4ccc(N5CCCC5)cc4)cc3)cc2)c1.[Br-]"
inactive

Annotate the compound "CN(C)c1cc[n+](Cc2ccc(-c3ccc(CNc4cccc(O)c4)cc3)cc2)cc1.[Br-]" with its measured inhibition.
54.2%

Please give measured inhibition of the following entry: "Oc1cccc(NCc2ccc(CCc3ccc(C[n+]4ccc(N5CCCC5)cc4)cc3)cc2)c1.[Br-]"
inactive

Specify inhibition for "CN(C)c1cc[n+](Cc2ccc(CCc3ccc(CNc4cccc(O)c4)cc3)cc2)cc1.[Br-]" and stop.
inactive
